experiment: DAX1 (NR0B1) inhibitors on StAR promoter, primary screen, cell-based, luminescence, SF-1 (NR5A1), full-length DAX-1 (AID 652010); conditions: HEK293T StAR-luciferase reporter, SF-1/DAX-1 repression relief; at 6.8 µM; stronger effect = higher value;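 also: 0% = DAX-1 cells with DMSO and 100% = cells lacking DAX-1 with DMSO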
Screen size: about 370,000 compounds; about 4,100 (1.1%) were called active. The sample holds actives, similar compounds and a random draw of the others, so the mix is not that of the screen.
As shown below, each of these compounds has a reported inhibition value.
The answer is to be given in %; state only the numeric part.

Study these solved cases before continuing.
CCOC(=O)N1CCN(S(=O)(=O)c2ccc3c(c2)C(C)C(=O)N3)CC1 (stereo unspecified)
0.76
Cc1ccccc1Nc1nc(N)nc(CSc2ccccc2)n1
6.39
Cc1ccc(NC(=O)c2cnc(SCC(=O)NCC3CCCO3)n(C)c2=O)cc1 (stereo unspecified)
3.81

Now look at this entry.
## Input Could you tell me which inhibition is on file for Cc1ccc(NC(=S)Nc2ncccc2C)c(C)c1 ?
## Output 4.16

----------
experiment: DAX1 (NR0B1) inhibitors on StAR promoter, primary screen, cell-based, luminescence, SF-1 (NR5A1), full-length DAX-1 (AID 652010); conditions: HEK293T StAR-luciferase reporter, SF-1/DAX-1 repression relief; at 6.8 µM;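 also: 0% = DAX-1 cells with DMSO and 100% = cells lacking DAX-1 with DMSO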
In all, about 370,000 compounds went through this assay and about 4,100 (1.1%) were called active.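 Rule for the calls: active = inhibition above the mean over all tested compounds plus 3 SD (cut at about 3.6% in these data); inactive = the rest.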 This excerpt belongs to a sample that is enriched for actives.
Pick from true for active, false for inactive when you respond.

Answered cases to consult:
COc1cc(C=C(OC(C)=O)c2ccc3c(c2)OCO3)cc(OC)c1OC
false
CC[C@]12c3[nH]c4cc(CCC(=O)N(C)C)ccc4c3CCN1C(=O)[C@@H](CC(=O)NCc1ccco1)C[C@@H]2C(=O)N1CCN(C(=O)c2ccco2)CC1
false

## Input // return assay outcome for S=c1[nH]nc(/C=C/c2ccccc2)o1
## Output false

----------
assay: DAX1 (NR0B1) inhibitors on StAR promoter, primary screen, cell-based, luminescence, SF-1 (NR5A1), full-length DAX-1 (AID 652010); settings: HEK293T StAR-luciferase reporter, SF-1/DAX-1 repression relief; at 6.8 µM; stronger effect = higher value;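 also: 0% = DAX-1 cells with DMSO and 100% = cells lacking DAX-1 with DMSO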
The whole screen tested about 370,000 compounds, of which about 4,100 (1.1%) were called active. The full list was thinned out, with actives kept by preference.
READOUT_NAME: inhibition (%)
The answer is to be given in %; state only the numeric part.

CC(NS(=O)(=O)c1ccc(OCC(=O)N2CCCC2)cc1)c1ccccc1 (stereo not drawn)
0.22
CCCOc1ccc(C(=O)NCCc2ccccc2)cc1
5.47
O=C(CCSc1ccccc1)N1CCN(c2ccccc2F)CC1
3.74
CCOC(=O)c1ccc(NC(=O)c2ccc(NC(=O)C3CCCO3)cc2)cc1 (stereo not drawn)
-1.16
Cc1cccc(/C(N)=N/OC(=O)c2ccccc2Cl)c1
4.38

## Input Could you tell me which inhibition is on file for Fc1ccc2cnc(-c3ccccc3)cc2c1 ?
## Output 9.42

## Input What do you get for Cc1ccc(N/C=C/C(=O)c2ccccc2)cc1C ?
## Output 5.15

## Input What do you get for Cc1ccc(C(=O)O/N=C(\N)c2ccccn2)cc1Cl ?
## Output 1.79

## Input What do you get for CN1CCN(C(=O)c2ccc(-c3ccc(Br)cc3)o2)CC1 ?
## Output 4.56

## Input What do you get for O=C(NCCC1=CCCCC1)C1CCN(S(=O)(=O)c2ccc(Cl)s2)CC1 ?
## Output 0.02

## Input What do you get for Cc1[nH]nc2c1C(c1ccc(Br)cc1)NC2=O (stereo not drawn) ?
## Output -0.04

## Input What do you get for CN1OC[C@@H]2CN[C@H](c3ccc(-c4ccccc4)cc3)C[C@@H]21 ?
## Output 5.45

----------
experiment: DAX1 (NR0B1) inhibitors on StAR promoter, primary screen, cell-based, luminescence, SF-1 (NR5A1), full-length DAX-1 (AID 652010); conditions: HEK293T StAR-luciferase reporter, SF-1/DAX-1 repression relief; at 6.8 µM; stronger effect = higher value;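 also: 0% = DAX-1 cells with DMSO and 100% = cells lacking DAX-1 with DMSO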
Among all 370,000 compounds or so, about 4,100 (1.1%) were called active. The list comes from a sample in which actives are over-represented; it also holds close analogues and randomly drawn compounds.
READOUT_NAME: inhibition (%)
The answer is to be given in %; state only the numeric part.

Fc1ccccc1/C=N/Nc1cc(N2CCCCC2)ncn1
3.71

## Input Could you tell me which inhibition is on file for O=C(Nc1cc(F)ccc1F)c1ccc2c(=O)n3c(nc2c1)CCC3 ?
## Output 3.87

----------
test: DAX1 (NR0B1) inhibitors on StAR promoter, primary screen, cell-based, luminescence, SF-1 (NR5A1), full-length DAX-1 (AID 652010); details: HEK293T StAR-luciferase reporter, SF-1/DAX-1 repression relief; at 6.8 µM;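 also: 0% = DAX-1 cells with DMSO and 100% = cells lacking DAX-1 with DMSO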
Screen size: about 370,000 compounds; about 4,100 (1.1%) were called active.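 The calls were made as follows: active = inhibition above the mean over all tested compounds plus 3 SD (cut at about 3.6% in these data); inactive = the rest.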 Only a selection was taken, and actives are over-represented in it overall.
Pick from active, inactive when you respond.

Answered cases to consult:
COc1ccc(C(=O)CSc2nnc(NC(=O)C3CC(=O)N(c4cccc(OC)c4)C3)s2)cc1 (configuration not stated)
inactive
CCCCNC(=O)C[C@H]1C(=O)N(Cc2ccc(OC)cc2)C2=CCCC[C@@]21C(=O)OCC
inactive
Cc1cc(OCc2cc(C(=O)NCc3cc(C(C)C)no3)no2)cc(C)c1Cl
active

## Input // return assay outcome for O=C(CCc1nnc2ccc(NCc3ccco3)nn12)Nc1cc(F)ccc1F
## Output inactive

## Input What do you get for COCCCNC(=O)COc1cc(C)c(Cl)c(C)c1 ?
## Output inactive

## Input What do you get for Cc1ccc(CN2CCCCC(NC(=O)C3CCCCC3)C2=O)cc1 (configuration not stated) ?
## Output inactive

----------
As shown below, each of these molecules has a reported inhibition value.
experiment: DAX1 (NR0B1) inhibitors on StAR promoter, primary screen, cell-based, luminescence, SF-1 (NR5A1), full-length DAX-1 (AID 652010); settings: HEK293T StAR-luciferase reporter, SF-1/DAX-1 repression relief; at 6.8 µM; stronger effect = higher value;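 also: 0% = DAX-1 cells with DMSO and 100% = cells lacking DAX-1 with DMSO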
Hit rate of the full screen: of about 370,000 compounds, about 4,100 (1.1%) were called active. The entries come from a sample that favours actives as a whole.
The answer is to be given in %; state only the numeric part.

Study these solved cases before continuing.
C#CCN([C@H](C(=O)OC)C(C)CC)S(=O)(=O)c1ccccc1Br (stereo partly specified)
-0.34
Cc1ccc(Cc2c(-c3ccc(C)cc3)nc3c4ccccc4ccn23)cc1
-1.54
CC(C)(CNC(=O)c1ccc(Cl)c(S(=O)(=O)N2CCc3ccccc3C2)c1)N1CCOCC1
-2.85
O=C1N(c2ccccc2)C(=Nc2ccccc2)SC12CC2
-0.44
Cc1ccc(Cc2c(-c3ccc(Cl)cc3)nc3c4ccccc4ccn23)cc1
-0.2

## Input Could you tell me which inhibition is on file for O=S(=O)(c1cccs1)N1CCCc2nc(-c3ccc(Br)cc3)ccc21 ?
## Output 0.56

----------
assay: DAX1 (NR0B1) inhibitors on StAR promoter, primary screen, cell-based, luminescence, SF-1 (NR5A1), full-length DAX-1 (AID 652010); settings: HEK293T StAR-luciferase reporter, SF-1/DAX-1 repression relief; at 6.8 µM;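 also: 0% = DAX-1 cells with DMSO and 100% = cells lacking DAX-1 with DMSO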
In all, about 370,000 compounds went through this assay and about 4,100 (1.1%) were called active.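 The calls were made as follows: active = inhibition above the mean over all tested compounds plus 3 SD (cut at about 3.6% in these data); inactive = the rest.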 The sample holds actives, similar compounds and a random draw of the others, so the mix is not that of the screen.
Pick from 1 (active), 0 (inactive) when you respond.

CCOC(=O)CNC(=O)CSc1ncccc1-c1nc2ccccc2[nH]1
0

## Input // return assay outcome for O=C(Nc1ccc2oc(-c3ccccc3F)nc2c1)c1ccco1
## Output 1

## Input What do you get for CC(C)Cc1cc(C(=O)NCCc2ccccc2)no1 ?
## Output 1

## Input What do you get for Cc1cccc(NC(=O)/C=C/c2ccc3c(c2)OCO3)n1 ?
## Output 1

## Input What do you get for O=C1[C@@H]2C(c3cccnc3)=NO[C@@H]2C(=O)N1c1ccc(Cl)cc1Cl ?
## Output 0

## Input What do you get for CC(C)Cc1cc(C(=O)Nc2cc(Br)ccc2O)no1 ?
## Output 0

## Input What do you get for O=S(=O)(NCC1CCCO1)c1ccc2ccccc2c1 (stereo not given) ?
## Output 0

----------
test: DAX1 (NR0B1) inhibitors on StAR promoter, primary screen, cell-based, luminescence, SF-1 (NR5A1), full-length DAX-1 (AID 652010); details: HEK293T StAR-luciferase reporter, SF-1/DAX-1 repression relief; at 6.8 µM;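 also: 0% = DAX-1 cells with DMSO and 100% = cells lacking DAX-1 with DMSO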
The whole screen tested about 370,000 compounds, of which about 4,100 (1.1%) were called active.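 Rule for the calls: active = inhibition above the mean over all tested compounds plus 3 SD (cut at about 3.6% in these data); inactive = the rest.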 The list comes from a sample in which actives are over-represented; it also holds close analogues and randomly drawn compounds.
Pick from 1.0 = active, 0.0 = inactive when you respond.

O=C(C1CCCO1)N(c1ccc(F)cc1)C1C=CS(=O)(=O)C1 (configuration not stated)
0.0
CN(CC(=O)Nc1ccc(F)cc1)CC(=O)N1CCCCC1
1.0

## Input // return assay outcome for Clc1ccc2nc(CSc3ccccc3)cn2c1
## Output 1.0

## Input What do you get for CCOC(=O)[C@]12CCCC=C1N(Cc1ccc(OC)cc1)C(=O)[C@@H]2CC(=O)NCc1cccs1 ?
## Output 0.0

## Input What do you get for O=C(CSc1nc2ccccc2s1)NN=Cc1ccc(O)cc1O ?
## Output 0.0

## Input What do you get for Cn1nc(-c2ccccc2)c(CSc2cccc(Cl)c2)c1Cl ?
## Output 0.0

## Input What do you get for COc1cc(CO)ccc1OCC(=O)Nc1cccc2ccccc12 ?
## Output 0.0
